Cited source: PubChem BioAssay AID504329

Field: inhibition. Provide a value for each of the molecules that follow.
- experiment summary: H1N1 influenza NS1A inhibitors, functional cell based assay (AID 504329)
- condition: percent inhibition, at 12.5 µM, active compounds read high
In all, about 340,000 compounds went through this assay and about 1,000 (0.29%) were called active. These entries were drawn from the full list. Entries with a potency or affinity are not part of this list.
Give bare numbers, in %.

CC(=O)Nc1ccc(NC(=O)CSc2nnc(-c3cccnc3)o2)cc1; -1.5
CC(C)(C)CN1CCNC[C@H]1Cc1cccc2ccccc12; 4.41
CCOC(=O)c1c(NC(=O)c2ccccc2)sc2c1CCc1ccccc1-2; -10.9
COC(=O)C1CCN(C(=O)/C=C/c2ccc(OC)cc2)CC1; 1.45
CC(C)Cc1nnc(NC(=O)c2ccncc2)s1; 7

Would you mind giving inhibition for every molecule in the list below?
1. CCn1c(C)nc2cc(C(=O)NN=Cc3ccccc3OC(F)F)ccc21
2. O=C1Nc2ccc(Br)cc2/C1=N\N=C\C1=C(N2CCOCC2)C(=C/c2ccccc2)/CC1
3. COc1ccccc1-c1cc(C(=O)NC(C)c2ccccc2)no1 (stereo not given)
4. COc1ccc(C(=O)c2sc(Nc3ccc(NC(C)=O)cc3)nc2C)cc1
5. O=C(NC(=S)Nc1ccc2oc(-c3ccncc3)nc2c1)c1ccccc1F
6. COc1ccc([C@H]2CC(=O)C=C(c3cccc4c3sc3ccccc34)C2)cc1OC
7. CCOC(=O)c1cnc2c(OC)cccc2c1N1CCN(c2ccccn2)CC1

OUTPUT:
1: -6.28; 2: 20.8; 3: 10.7; 4: -2.13; 5: 1.17; 6: 7.03; 7: 3.27

----------
- experiment summary: H1N1 influenza NS1A inhibitors, functional cell based assay (AID 504329)
- condition: percent inhibition, at 12.5 µM, active compounds read high
In all, about 340,000 compounds went through this assay and about 1,000 (0.29%) were called active. Only a sample is shown. Results with a measured potency or affinity are listed apart.
observation type: inhibition (%)
Answers are plain numbers, in %.

O=C(N/N=C/c1cc([N+](=O)[O-])ccc1O)c1cc(-c2ccccc2)nc2ccccc12; 15.9
Cc1cc(C(=O)N/N=C/c2ccc([N+](=O)[O-])cc2)c2ccccc2n1; 8.83
CCOc1ccc2[nH]c(=O)c(CN(Cc3ccccc3OC)C(=O)c3ccccc3)cc2c1; 21.1
O=C(Cn1cncn1)N/N=C/c1ccccc1Cl; -0.24
CCn1c(=O)c([N+](=O)[O-])c(NC2CCS(=O)(=O)C2)c2ccccc21 (stereo unspecified); -2.22

// for each molecule below, give its inhibition
1. CC(C)=C(NC(=O)c1ccccc1)C(=O)Nc1ccc(C(=O)O)cc1
2. Cc1c(C)c2ccc(OCC(=O)N3CCN(c4ccccc4)CC3)cc2oc1=O
3. Nc1nnc(CC(=O)N/N=C/c2cc([N+](=O)[O-])cc(Br)c2O)s1
4. Nn1cnnc1N/N=C/c1ccc(Cl)cc1Cl
5. CC(C)n1cnnc1SCC(=O)NC(=O)c1ccccc1
6. COc1ccc(/C=N/Nc2nncn2N)cc1Br

OUTPUT:
[-12.3, 4.8, 7.8, -12.4, -13.7, 9.22]

----------
- experiment summary: H1N1 influenza NS1A inhibitors, functional cell based assay (AID 504329)
- condition: percent inhibition, at 12.5 µM, active compounds read high
Hit rate of the full screen: of about 340,000 compounds, about 1,000 (0.29%) were called active. These entries were drawn from the full list. Entries with a potency or affinity are not part of this list.
Consider the following molecules; for each one, report its inhibition.
One number for each entry, in %.

Cc1ccc(S(=O)(=O)CCc2nnc(NC(=O)c3cnccn3)s2)cc1; -1.91
COc1ccc(CN2CCN(C)CC2)cc1OCc1ccccc1; 0.12
O=C(Oc1c(CN2CCOCC2)cc(Cl)c2cccnc12)c1ccccc1; -7.41

Hey, can you go through the list below and give me inhibition for every item?
1. N#Cc1cc(-c2cccc(Cl)c2)c[nH]c1=O
2. CC(=O)N1N=C(c2ccc(C)cc2)CC1c1ccc2c(c1)OCO2 (configuration not stated)
3. COc1cc(OC)cc(C(=O)Oc2c(CN3CCOCC3)cc(Cl)c3cccnc23)c1
4. CCc1nnc(NC(=O)c2cccc(C(=O)Nc3nnc(CC)s3)n2)s1
5. CN(Cc1ccc(F)cc1)C(=O)c1ccc(NC(=O)CC2SC(N3CCCC3)=NC2=O)cc1 (configuration not stated)
6. CCc1nnc(NC(=O)c2cnccn2)s1
7. CC(SCc1ccccc1)C(=O)Nc1ccccc1F (configuration not stated)
8. CCSc1nnc(NC(=O)c2cccnc2Cl)s1

OUTPUT:
3.18
-19.2
-7.03
-2.25
9.52
-0.42
4.17
-1.92

INPUT: Recorded inhibition of CCSc1nnc(NC(=O)c2ccccc2)s1 , please.
OUTPUT: -12.7

----------
Provide the reported inhibition of each item.
- experiment summary: H1N1 influenza NS1A inhibitors, functional cell based assay (AID 504329)
- condition: percent inhibition, at 12.5 µM, active compounds read high
The campaign covered roughly 340,000 compounds. About 1,000 (0.29%) were called active. A selection follows. Potency and affinity values are given separately.
Give bare numbers, in %.

Consider the worked cases shown below.
O=C(O)CCCNc1cc(N2CCN(C(=O)c3ccco3)CC2)c2noc3c2c1C(=O)c1ccccc1-3; 25.1
CC(=O)Nc1ccc(Nc2ccccc2)cc1; -4.36
COc1ccc(Nc2cccccc2=O)cc1; -2.41
CC(C)(C)OC(=O)N1C[C@H](O)C[C@H]1C(=O)OCC(=O)c1ccc([N+](=O)[O-])cc1; 9.24
O=C1N2CCSC2=NC1(Nc1nccs1)C(F)(F)F (configuration not stated); -5.52

Hi there! I need inhibition for each item below, if you can.
1. Cc1ccc(Nc2cccccc2=O)cc1
2. CC(C)Nc1ccccc1

OUTPUT:
[-5.45, -4.73]

----------
Record form. Attribute: inhibition. Fill in for each entry.
- experiment summary: H1N1 influenza NS1A inhibitors, functional cell based assay (AID 504329)
- condition: percent inhibition, at 12.5 µM, active compounds read high
Screen size: about 340,000 compounds; about 1,000 (0.29%) were called active. A selection follows. Results with a measured potency or affinity are listed apart.
Numbers only, in %.

O=C(Cc1ccc2c(c1)OCCO2)Nc1cc(C(F)(F)F)ccc1N1CCOCC1; -15.4
CCOc1ccc(-c2nc(S(=O)(=O)c3ccccc3)c(N3CCOCC3)o2)cc1; 6.87
c1ccc(-c2n[nH]c(-c3ccccn3)n2)cc1; -0.5
CC(C(=O)NCC1(c2ccccc2)CCOCC1)N1CCOCC1 (centres undefined); -3.8
CC1(C)Oc2ccc(C(=O)NC3CCCC3)cc2N(CC(=O)NC2CCCCC2)C1=O; -5.58

Each of the following entries comes with a recorded value; kindly state inhibition for each.
1. O=C1C(NS(=O)(=O)c2cccs2)=C(N2CCN(c3cccc(Cl)c3)CC2)C(=O)c2ccccc21
2. c1ccc(-c2ccccn2)nc1
3. c1cc(-c2n[nH]c(-c3ccncc3)n2)ccn1
4. c1ccc(-c2nc3ccccc3nc2-c2ccccn2)nc1
5. CCc1ccc2[nH]c(C)c(CN3CCCCCC3)c(=O)c2c1

OUTPUT:
[19.4, -0.49, -1.91, 0.35, 6.48]

Hey, quick one: what's inhibition for each of these?
1. CC(CC(F)(F)F)N1CCC(n2nccc2NC(=O)CCCc2ccccc2)CC1 (centres undefined)
2. CC(C)N1C(=O)/C(=C/c2nc3ccccc3c(=O)n2-c2ccccc2)c2ccccc21
3. COc1ccc(-c2ccc3nnc(SCC(=O)N4CCCC4)n3n2)cc1
4. Fc1ccccc1NC(=S)N1CCOCC1
5. CC(=O)NC(CC(=O)O)c1ccccc1 (centres undefined)

OUTPUT:
1. -11
2. 27.7
3. -5.09
4. 16.1
5. -5.66

Your task in this section: give inhibition for each listed record.
1. CSc1nncc(-c2ccccc2)n1
2. Nc1nc(N)nc(-c2ccccc2O)n1
3. CC(=O)NC(c1ccc2ccccc2c1)c1ccc2cccnc2c1O (centres undefined)

OUTPUT:
-2.08
1.67
23.8

----------
- experiment summary: H1N1 influenza NS1A inhibitors, functional cell based assay (AID 504329)
- condition: percent inhibition, at 12.5 µM, active compounds read high
Screen size: about 340,000 compounds; about 1,000 (0.29%) were called active. Not all results are given here. Results with a measured potency or affinity are listed apart.
Field: inhibition. Provide a value for each of the compounds that follow.
Numbers only, in %.

Cc1nn(-c2ccccc2)c(C)c1/C=N/NC(=O)c1cc(-c2ccccc2)n[nH]1; -0.6

Please go through the list and note inhibition for each compound.
1. Cc1nn(-c2ccccc2)c(N2CCCC2)c1/C=N/NC(=O)c1cc2ccccc2cc1O
2. Cc1ccc(-c2cc(C(=O)N/N=C/c3c(C)nn(-c4ccccc4)c3C)[nH]n2)cc1

OUTPUT:
2.95
11.2

Quick batch: inhibition for everything below.
1. Cc1nn(-c2ccccc2)c(C)c1/C=N/NC(=O)c1cc(O)cc(O)c1
2. Cc1nn(-c2ccc(F)cc2)c(Cl)c1/C=N/NC(=O)c1ccc(O)cc1

OUTPUT:
1: -10.7; 2: 9.96
